System: COLO 205 colon
Experiment: NCI-60 one-dose screen, 48 h (100 = growth as untreated, 0 = no growth, -100 = all killed)
Conditions: 10 µM unless noted
About 83,000 compounds went through this panel and 20% of them were active in at least one assay; those are over-represented in the sample as a whole.
MEASURED QUANTITY: growth (%)

[[record]]
compound = "NC(CCC(=O)NC(CS)C(=O)NCC(=O)O)C(=O)O (stereo not drawn)"
measured_quantity = "growth"
reported_measurement = 104

[[record]]
compound = "CN(C)c1ccc(/C=C\\c2cccc[n+]2C)cc1"
measured_quantity = "growth"
reported_measurement = -35.6

[[record]]
compound = "CC(=O)N1N=C(C2C(=O)N(C)C(=O)N(C)C2=O)CC1c1ccccc1C(=O)O (stereo not drawn)"
measured_quantity = "growth"
reported_measurement = 108

[[record]]
compound = "c1ccc(-c2nnn(-c3ccccc3)n2)cc1"
measured_quantity = "growth"
reported_measurement = 117

[[record]]
compound = "O=C(Nc1cccc(N=Cc2c(O)ccc3ccccc23)c1)c1ccccc1"
measured_quantity = "growth"
reported_measurement = 105

[[record]]
compound = "Cc1cc(Nc2c3ccccc3nc3ccccc23)ccc1NS(C)(=O)=O"
measured_quantity = "growth"
reported_measurement = 18.3

[[record]]
compound = "O=C(N/N=C/c1ccc([N+](=O)[O-])cc1)c1ccccc1Nc1ccnc(C(F)(F)F)c1"
measured_quantity = "growth"
reported_measurement = 103

[[record]]
compound = "CN1C(=O)N(C)C2C1NN=c1s/c(=C\\c3ccsc3)c(=O)n12 (stereo not drawn)"
measured_quantity = "growth"
reported_measurement = 41.1

[[record]]
compound = "c1coc(CNc2c3ccccc3nc3ccccc23)c1"
measured_quantity = "growth"
reported_measurement = 35.2

[[record]]
compound = "Cc1cccc2nc3ccccc3c(Nc3ccc(NS(C)(=O)=O)cc3)c12"
measured_quantity = "growth"
reported_measurement = 51.1

[[record]]
compound = "COc1ccc2[nH]cc(C3(c4c[nH]c5ccc(OC)cc45)C(=O)Nc4ccc(F)cc43)c2c1"
measured_quantity = "growth"
reported_measurement = 72.9

[[record]]
compound = "CCCCCCCCCCCCCCCCCC(=O)[O][Sn]([CH2]CCC)([CH2]CCC)[CH2]CCC"
measured_quantity = "growth"
reported_measurement = -80.9

[[record]]
compound = "c1csc(-c2cnc3nonc3n2)c1"
measured_quantity = "growth"
reported_measurement = 91.3

[[record]]
compound = "CCOC(=O)C(CCCCC(NC(C)=O)(C(=O)OCC)C(=O)OCC)(NC(C)=O)C(=O)OCC"
measured_quantity = "growth"
reported_measurement = 107

[[record]]
compound = "CCN(CC)CC(=O)Nc1c(C)cc(C(=O)NN)cc1C"
measured_quantity = "growth"
reported_measurement = 95.4

[[record]]
compound = "COc1cnc2c(c1)C(=O)c1c-2n(CCCN2CCCC2)c(=O)c2cc(Cl)ccc12"
measured_quantity = "growth"
reported_measurement = 10.4

[[record]]
compound = "COCc1nc(NS(=O)(=O)c2ccc(N)cc2)nc(C)c1Br"
measured_quantity = "growth"
reported_measurement = 108

[[record]]
compound = "COc1ccc(-n2nc(C(=O)Nc3ccc(F)cc3)nc2-c2cc(OC)c(OC)c(OC)c2)cc1"
measured_quantity = "growth"
reported_measurement = 102

[[record]]
compound = "Cc1ccc(NC(=O)c2cc(NCc3cc(O)ccc3O)ccc2O)cc1"
measured_quantity = "growth"
reported_measurement = 105

[[record]]
compound = "COc1cnc2c(c1)C(=O)c1c-2n(CCCN2CCNCC2)c(=O)c2cc(Cl)ccc12"
measured_quantity = "growth"
reported_measurement = 22.7

[[record]]
compound = "COc1cc(CN(CCC(O)N2CCCC2=O)Cc2ccc3c(c2)OCO3)cc(OC)c1OC (stereo not drawn)"
measured_quantity = "growth"
reported_measurement = 120

[[record]]
compound = "CS(=O)(=O)c1ccc(C(=O)Nc2ccc(Cl)c(-c3ccccn3)c2)c(Cl)c1"
measured_quantity = "growth"
reported_measurement = 6.45

[[record]]
compound = "CC1=C(O)C(=O)CC1"
measured_quantity = "growth"
reported_measurement = 116

[[record]]
compound = "N=C(N)c1ccc(-c2ccc(-c3cccs3)s2)cc1F"
measured_quantity = "growth"
reported_measurement = -87.1

[[record]]
compound = "C=CCOC(=O)C1=C(C)NC2=C(C(=O)CC(C)(C)C2)C1c1ccc(OC)cc1 (stereo not drawn)"
measured_quantity = "growth"
reported_measurement = 109

[[record]]
compound = "O=C(Nc1ccc([N+](=O)[O-])cc1)c1cc2ccccc2cc1O"
measured_quantity = "growth"
reported_measurement = 67.8

[[record]]
compound = "CC(C)[C@@]12C[C@@H](OC(=O)[C@H]3CO3)[C@@](C)(O1)[C@@H]1CC[C@@H](C)[C@H]1[C@@H]2OC(=O)/C=C/c1ccccc1"
measured_quantity = "growth"
reported_measurement = 109

[[record]]
compound = "Cc1ccc(NC(=O)c2sc3nc4c(cc3c2N)C(=O)CCC4)cc1Cl"
measured_quantity = "growth"
reported_measurement = 128


----------
Test system: 786-0 renal
Assay: NCI-60 one-dose screen, 48 h (100 = growth as untreated, 0 = no growth, -100 = all killed)
Conditions: 10 µM unless noted
This is part of a sample that, as a whole, favours compounds with a hit. Of some 83,000 tested, about 20% had one in any assay.
Rule: growth of 90% or more gives T; anything lower gives F.

[[record]]
compound = "O=C(c1ccccc1)c1cccc(C(Br)Br)c1"
category_label = "T"

[[record]]
compound = "COc1ccc(Cl)cc1Nc1nc(C(F)(F)F)ccc1C(=O)NN"
category_label = "F"

[[record]]
compound = "O=C(O)C(CCc1ccccc1)NCc1ccccc1 (configuration not stated)"
category_label = "T"

[[record]]
compound = "NC(N)=NC1CCCCC1"
category_label = "T"

[[record]]
compound = "CC1=C(O)C(=O)CC1"
category_label = "T"

[[record]]
compound = "O=C(Nc1ccccc1)c1cc2ccccc2s1"
category_label = "T"

[[record]]
compound = "Cc1ccc2c(C)c3c(ccc4ccccc43)c[n+]2c1"
category_label = "F"

[[record]]
compound = "CS(=O)(=O)c1ccc(C(=O)N/N=C/c2ccc3c(c2)OCO3)cc1"
category_label = "T"

[[record]]
compound = "COc1ccccc1CNCCCN1C(=O)c2ccc3c4c(ccc(c24)C1=O)C(=O)N(CCCNCCCN)C3=O"
category_label = "F"

[[record]]
compound = "Cc1cc2nc(CN)[nH]c2cc1C"
category_label = "T"

[[record]]
compound = "CSC1=N/C(=C\\c2cccc(OCc3ccc(Cl)cc3)c2)C(=O)N1"
category_label = "F"

[[record]]
compound = "COc1cccc(-c2nc3sccn3c2-c2ccnc(NCCN3CCCN(C)S3(=O)=O)n2)c1"
category_label = "F"


----------
System: NCI-H23 lung
Assay: NCI-60 one-dose screen, 48 h (100 = growth as untreated, 0 = no growth, -100 = all killed)
Conditions: 10 µM unless noted
Procedure: Growth inhibition of the NCI-H23 human Non-Small Cell Lung tumor cell line is measured as a screen for anti-cancer activity. Cells are grown in 96 well plates and exposed to the test compound for 48 hours. Compounds are tested at a single concentration, which is 10^-5 M for most compounds. The reported endpoint is percent growth (GI% or GIPRCNT), where numbers from 0 - 100% represent growth inhibition, and numbers from -100% - 0 represent cell death. […]
Compounds without any hit were thinned out: in the full panel of roughly 83,000, 20% have a hit.
The compounds listed here are annotated with their growth.
MEASURED QUANTITY: growth (%)

[[record]]
compound = "CC1OC(n2c3ccccc3c3c4c(c5c6ccccc6[nH]c5c32)C(=O)N(CCN[C@H]2CCC[C@@H]2N)C4=O)CC(O)C1O (stereo not given in full)"
result_unit = "%"
reported_measurement = 33.8

[[record]]
compound = "N=C(N)c1ccc(-c2ccc(-c3ccco3)o2)cc1F"
result_unit = "%"
reported_measurement = 56.2

[[record]]
compound = "COc1cccc(-c2cc(-c3cccs3)c(C#N)c(=O)[nH]2)c1"
result_unit = "%"
reported_measurement = 98.9

[[record]]
compound = "COc1cccc(C2C(C#N)=C(N)Oc3cc4c(cc32)OCO4)c1 (stereo not given)"
result_unit = "%"
reported_measurement = 9.81

[[record]]
compound = "C#Cc1cccc(Nc2nc3cc([N+](=O)[O-])ccc3nc2Nc2ccc(O)cc2)c1"
result_unit = "%"
reported_measurement = 9.92

[[record]]
compound = "COc1ccc(Cl)cc1Nc1nc(C(F)(F)F)ccc1C(=O)NN"
result_unit = "%"
reported_measurement = 39.9

[[record]]
compound = "Cc1cc(O)c2cc3c(O)c(O)ccc3cc2c1"
result_unit = "%"
reported_measurement = 101

[[record]]
compound = "CCC(=O)OCc1ccc(OC)cc1"
result_unit = "%"
reported_measurement = 99

[[record]]
compound = "CCOC(=O)c1cc(C(=O)OCC)c(C)nc1C"
result_unit = "%"
reported_measurement = 102

[[record]]
compound = "CC(C)CC(=O)C(CCc1ccccn1)C(C)C (stereo not given)"
result_unit = "%"
reported_measurement = 98.4

[[record]]
compound = "Cc1cc2nc(CN)[nH]c2cc1C"
result_unit = "%"
reported_measurement = 103

[[record]]
compound = "CCCCOc1nc2ccccc2cc1/C=C/c1cc(/C=C/c2cc3ccccc3nc2OCCCC)n(-c2ccccc2)n1"
result_unit = "%"
reported_measurement = 103

[[record]]
compound = "CC(C)(C)c1nn(-c2ccccc2)c2c1C(=O)CSC(c1ccc3c(c1)OCO3)N2 (stereo not given)"
result_unit = "%"
reported_measurement = 99.8

[[record]]
compound = "N#Cc1ccc(-c2ccc(-c3cccs3)o2)cc1F"
result_unit = "%"
reported_measurement = 76.9

[[record]]
compound = "CC1=CCC2C1CC=C(C)C(CC[C@H]1[C@@](C)(O)CCC3OC(C)(C)[C@H](OC(=O)c4ccccc4)CC[C@@]31C)C2(C)C (stereo not given in full)"
result_unit = "%"
reported_measurement = 65.2

[[record]]
compound = "CCCCCCCCCCCCCCCC1=NC(C)(C)CN1C(C)C"
result_unit = "%"
reported_measurement = 0.554

[[record]]
compound = "CCOC(=O)C#Cc1c(C(=O)OCC)nnn1[C@@H]1O[C@H](COC(C)=O)[C@@H](OC(C)=O)[C@H]1OC(C)=O"
result_unit = "%"
reported_measurement = 93.4

[[record]]
compound = "CS(=O)(=O)c1ccc(C(=O)N2N=C(c3ccccc3)CC2c2ccc3c(c2)OCO3)cc1 (stereo not given)"
result_unit = "%"
reported_measurement = 101

[[record]]
compound = "CN(C)CCNC(=O)n1cc(-c2ccncc2)c(-c2cc(O)cc(Cl)c2)n1"
result_unit = "%"
reported_measurement = 108

[[record]]
compound = "O=S1(=O)NCCN1CCNc1nccc(-c2c(-c3cccc(O)c3)nc3sccn23)n1"
result_unit = "%"
reported_measurement = 104

[[record]]
compound = "Cc1ccc(C)c2c1SC1=NNC(Oc3ccc(Cl)cc3)=C(C#N)C(=N)N12"
result_unit = "%"
reported_measurement = 92.7

[[record]]
compound = "FC(F)(F)c1cc(-c2nnc3n2N=C(Cl)CS3)cc(C(F)(F)F)c1"
result_unit = "%"
reported_measurement = 93

[[record]]
compound = "COC1(OC)C2(Cl)CCC1(Cl)C(Cl)=C2Cl"
result_unit = "%"
reported_measurement = 99.4

[[record]]
compound = "COc1ccc(-c2cnc(-c3ccncc3-c3cccc(OC)c3)o2)cc1"
result_unit = "%"
reported_measurement = 19.4

[[record]]
compound = "COc1ccc(C(=O)OC2C(OC3C(O)COC(O[C@H]4C[C@H]5[C@@H]6CC=C7C[C@@H](O)CC[C@]7(C)[C@H]6CC[C@]5(C)[C@H]4[C@H](C)C(=O)CCC(C)C)C3OC(=O)C(C)C)OCC(O)C2O)cc1 (stereo not given in full)"
result_unit = "%"
reported_measurement = 43.1

[[record]]
compound = "COc1ccc(-c2cc(C(=O)Nc3ccc(Br)cc3)nc3[nH]c(=O)sc23)cc1"
result_unit = "%"
reported_measurement = 23.6

[[record]]
compound = "Fc1ccc(-c2cnc3nonc3n2)c(F)c1"
result_unit = "%"
reported_measurement = 88.7

[[record]]
compound = "O=C1N(Cc2ccccc2Cl)c2ccccc2C12NN=C(c1ccccc1)S2 (stereo not given)"
result_unit = "%"
reported_measurement = 54.8

[[record]]
compound = "N/C(=C\\C(=O)n1nc(-c2ccccc2)cc1N)c1ccccc1"
result_unit = "%"
reported_measurement = 58.3

[[record]]
compound = "CCn1c(=O)c(C(=O)NCCCO)c(O)c2ccccc21"
result_unit = "%"
reported_measurement = 110

[[record]]
compound = "CCN(CC)CCCC(C)Nc1c(-c2ccccc2)cnc2cc(Cl)ccc12 (stereo not given)"
result_unit = "%"
reported_measurement = 73.2

[[record]]
compound = "COc1ccc(C(=O)N2N=C(c3ccc(F)cc3)CC2c2cn(-c3ccccc3)nc2-c2ccccc2)cc1 (stereo not given)"
result_unit = "%"
reported_measurement = 51

[[record]]
compound = "CC(=O)O[C@@H]1CC2C(C)(C)CCCC2(C)C2=C1C(=O)C(C(C)C)=CC2=O (stereo not given in full)"
result_unit = "%"
reported_measurement = 8.94

[[record]]
compound = "CCOc1cc(/C=N\\NC(=O)C[N+](C)(C)C)ccc1O"
result_unit = "%"
reported_measurement = 104

[[record]]
compound = "CC(=O)CC(c1ccc([N+](=O)[O-])cc1)c1c(O)c2ccccc2oc1=O (stereo not given)"
result_unit = "%"
reported_measurement = 106

[[record]]
compound = "CCOC(=O)N1C2CCC(C2)N1C(=O)OCC"
result_unit = "%"
reported_measurement = 104

[[record]]
compound = "Nc1c(C(=O)Nc2cccc(Cl)c2)sc2nc3c(cc12)C(=O)CCC3"
result_unit = "%"
reported_measurement = 38

[[record]]
compound = "Cc1ccc([C@H]2c3[nH]c4ccccc4c3C[C@H]3C(=O)N(CCCCCCC(=O)NO)CC(=O)N23)cc1"
result_unit = "%"
reported_measurement = 63.8

[[record]]
compound = "O=C(CC(=O)C(F)(F)C(F)(F)C(F)(F)F)c1cc2ccccc2o1"
result_unit = "%"
reported_measurement = 101

[[record]]
compound = "CSc1nc(N)c2[nH]c(-c3cc4ccccc4[nH]c3=O)nc2n1"
result_unit = "%"
reported_measurement = 83.9

